Parameter pIC50: see the listing below.
# subject_of_test: human MC5R (Homo sapiens)
# Construct: purchased Perkin Elmer RBXMC5M400UA
# protocol: Human MC5R radioligand binding assay ([125I] NDP-MSH displacement, hMC5R membranes)
# study_conditions: hMC5R assay as in Example 102; compounds tested as trifluoroacetate or hydrochloride salts, or as free base
pIC50: −log10 of the molar value.

smiles_structure: N=C(N)NCCC[C@@H]1N[C@H](CNC(=O)c2ccc(Br)cc2)CCN(CC(c2ccccc2)c2ccccc2)C1=O
pIC50: > 6.00

Ask: Determine its reported pIC50: NCCCC[C@@H]1N[C@H](CNC(=O)c2ccc3ccccc3c2)CCN(Cc2ccc3ccccc3c2)C1=O
Result: > 6.00

Ask: Determine its reported pIC50: Cc1ccc(C(=O)NC[C@@H]2CCN(CC(c3ccccc3)c3ccccc3)C(=O)[C@H](CCN)N2)cc1C
Result: > 6.00

Ask: Determine its reported pIC50: CN(C[C@@H]1CCN(CC(c2ccccc2)c2ccccc2)C(=O)[C@H](CCCN)N1)C(=O)c1ccc2cc(Br)ccc2c1
Result: > 5.00

---

# subject_of_test: human MC5R (Homo sapiens)
# Construct: purchased Perkin Elmer RBXMC5M400UA
# protocol: Human MC5R radioligand binding assay ([125I] NDP-MSH displacement, hMC5R membranes)
value_type: IC50

Known IC50 results, listed for orientation:
molecule: CC[C@H](CN1CC[C@H](CNC(=O)c2ccc3cc(Cl)ccc3c2)N[C@H](CC(C)(C)N2CCCCC2)C1=O)c1ccccc1 (racemic) [Compound 500]
subject_of_test: human MC5R (Homo sapiens)
IC50: < 100 nM
//
molecule: CC[C@@H](CN1CC[C@@H](CNC(=O)c2ccc(Cl)c(Cl)c2)N[C@@H](CCN)C1=O)C(C)C (racemic) [Compound 489]
subject_of_test: human MC5R (Homo sapiens)
IC50: < 10000 nM
//
molecule: CCC(CN1CCC(CNC(=O)c2ccc3cc(Cl)ccc3c2)N[C@@H](C2CCN(C(C)C)CC2)C1=O)c1ccccc1 (mixture of isomers) [Compound 564]
subject_of_test: human MC5R (Homo sapiens)
IC50: < 100 nM
//
molecule: CC[C@H](CN1CC[C@@H](CNC(=O)c2ccc3cc(Cl)ccc3c2)N[C@@H](CC(C)(C)N2CCCCC2)C1=O)c1ccccc1 (racemic) [Compound 499]
subject_of_test: human MC5R (Homo sapiens)
IC50: < 100 nM

// below: IC50 requested for another molecule
Ask: Determine its reported IC50: CC[C@H](CN1CC[C@@H](CNC(=O)c2ccc(Cl)c(Cl)c2)N[C@@H](CCN)C1=O)C(C)C (racemic) [Compound 490]
Result: < 10000 nM

---

# subject_of_test: human MC5R (Homo sapiens)
# Construct: purchased Perkin Elmer RBXMC5M400UA
# protocol: Human MC5R radioligand binding assay ([125I] NDP-MSH displacement, hMC5R membranes)
# study_conditions: hMC5R assay as in Example 102; compounds tested as trifluoroacetate or hydrochloride salts, or as free base
pIC50: −log10 of the molar value.
value_type: pIC50

smiles_structure: COc1cc(C(=O)NC[C@@H]2CCN(CC(c3ccccc3)c3ccccc3)C(=O)[C@H](CCCNC(=N)N)N2)c(OC)c2ccccc12
pIC50: > 6.00
--
smiles_structure: COc1cc2ccccc2cc1C(=O)NC[C@@H]1CCN(CC(c2ccccc2)c2ccccc2)C(=O)[C@H](CCCNC(=N)N)N1
pIC50: > 6.00
--
smiles_structure: O=C(/C=C/c1ccc(Cl)cc1)NC[C@@H]1CCN(CC(c2ccccc2)c2ccccc2)C(=O)[C@H](Cc2ccccc2)N1
pIC50: > 6.00
--
smiles_structure: N=C(N)NCCC[C@@H]1N[C@H](CNC(=O)/C=C/c2ccccc2C(F)(F)F)CCN(CC(c2ccccc2)c2ccccc2)C1=O
pIC50: > 6.00
--
smiles_structure: O=C(NCC[C@@H]1CCN(CC(c2ccccc2)c2ccccc2)C(=O)[C@H](CCN2CCCCC2)N1)c1ccccc1
pIC50: > 5.00

Ask: Determine its reported pIC50: N=C(N)NCCC[C@@H]1N[C@H](CNC(=O)/C=C/c2cccc(F)c2)CCN(CC(c2ccccc2)c2ccccc2)C1=O
Result: > 7.00

Ask: Determine its reported pIC50: CCC(CC)CN1CC[C@@H](CNC(=O)c2ccc(Cl)c(F)c2)N[C@@H](CCN)C1=O
Result: > 5.00

---

# subject_of_test: human MC5R (Homo sapiens, UniProt P33032)
# Construct: purchased Perkin Elmer RBXMC5M400UA
# Sequence (P33032 whole entry): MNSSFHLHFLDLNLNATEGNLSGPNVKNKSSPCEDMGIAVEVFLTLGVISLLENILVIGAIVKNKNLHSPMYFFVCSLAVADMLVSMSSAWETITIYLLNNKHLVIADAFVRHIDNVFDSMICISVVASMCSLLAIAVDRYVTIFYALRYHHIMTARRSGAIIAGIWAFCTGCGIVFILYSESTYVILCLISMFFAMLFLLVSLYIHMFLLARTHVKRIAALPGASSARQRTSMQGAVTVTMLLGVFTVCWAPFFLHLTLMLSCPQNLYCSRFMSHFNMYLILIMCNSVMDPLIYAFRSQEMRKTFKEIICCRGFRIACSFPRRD
# protocol: Human MC5R radioligand binding assay ([125I] NDP-MSH displacement, hMC5R membranes)
# study_conditions: hMC5R assay as in Example 102; compounds tested as trifluoroacetate or hydrochloride salts, or as free base
Parameter IC50: see the listing below.

Known IC50 results, listed for orientation:
smiles_structure: CNCCC[C@@H]1N[C@H](CNC(=O)c2ccc3ccccc3c2)CCN(CC(c2ccccc2)c2ccccc2)C1=O
IC50: < 1000 nM
--
smiles_structure: CNC(=N)NCCC[C@@H]1N[C@H](CNC(=O)c2ccc3ccccc3c2)CCN(CC(c2ccccc2)c2ccccc2)C1=O
IC50: < 10 nM
--
smiles_structure: N=C(N)NCCC[C@@H]1N[C@H](CNS(=O)(=O)c2ccc3ccccc3c2)CCN(CC(c2ccccc2)c2ccccc2)C1=O
IC50: < 10000 nM
--
smiles_structure: N=C(N)NCCC[C@@H]1N[C@H](CNC(=O)[C@H]2COc3ccccc3O2)CCN(CC(c2ccccc2)c2ccccc2)C1=O
IC50: < 1000 nM
--
smiles_structure: N=C(N)NCCC[C@@H]1N[C@H](CNC(=O)/C=C/c2c(F)cccc2F)CCN(CC(c2ccccc2)c2ccccc2)C1=O
IC50: < 100 nM
--
smiles_structure: N=C(N)NCCC[C@@H]1N[C@H](CNC(=O)C2CCCC2)CCN(CC(c2ccccc2)c2ccccc2)C1=O
IC50: < 10000 nM

Ask: Determine its reported IC50: NCC[C@@H]1N[C@H](CNC(=O)/C=C/c2ccc(F)cc2)CCN(CC(c2ccccc2)c2ccccc2)C1=O
Result: < 100 nM

Ask: Determine its reported IC50: NCC[C@@H]1N[C@H](CNC(=O)c2ccc3cc(F)ccc3c2)CCN(CC(c2ccccc2)c2ccccc2)C1=O
Result: < 1000 nM

Ask: Determine its reported IC50: N=C(N)NCCC[C@@H]1N[C@H](CNC(=O)[C@@H]2COc3ccccc3O2)CCN(CC(c2ccccc2)c2ccccc2)C1=O
Result: < 1000 nM

Ask: Determine its reported IC50: Cc1ccc(C(=O)NC[C@@H]2CCN(CC(c3ccccc3)c3ccccc3)C(=O)[C@H](CCCN3CCCCC3)N2)cc1C
Result: < 100 nM

---

# subject_of_test: human MC5R (Homo sapiens)
# Construct: purchased Perkin Elmer RBXMC5M400UA
# protocol: Human MC5R radioligand binding assay ([125I] NDP-MSH displacement, hMC5R membranes)
# study_conditions: hMC5R assay as in Example 102; compounds tested as trifluoroacetate or hydrochloride salts, or as free base
pIC50: −log10 of the molar value.
value_type: pIC50

molecule: CCC(CN1CCC(CNC(=O)c2ccc3cc(Cl)ccc3c2)N[C@@H](C2CCNCC2)C1=O)c1ccccc1 (stereo partly shown)
subject_of_test: human MC5R (Homo sapiens)
pIC50: > 7.00
--
molecule: NCCCC[C@@H]1N[C@H](CNC(=O)Cc2cccc3ccccc23)CCN(Cc2ccc3ccccc3c2)C1=O
subject_of_test: human MC5R (Homo sapiens)
pIC50: > 5.00
--
molecule: O=C(/C=C/c1ccc(Cl)cc1)NC[C@@H]1CCN(CC(c2ccccc2)c2ccccc2)C(=O)[C@H](CCNC(=O)CC2CCCCC2)N1
subject_of_test: human MC5R (Homo sapiens)
pIC50: > 6.00
--
molecule: N=C(N)NCCC[C@@H]1N[C@H](CNC(=O)c2ccc3ncsc3c2)CCN(CC(c2ccccc2)c2ccccc2)C1=O
subject_of_test: human MC5R (Homo sapiens)
pIC50: > 6.00
--
molecule: O=C(/C=C/c1ccc(Cl)cc1)NC[C@@H]1CCN(CC(c2ccccc2)c2ccccc2)C(=O)[C@H](CCNC(=O)C2CCCCC2)N1
subject_of_test: human MC5R (Homo sapiens)
pIC50: > 6.00

Ask: Determine its reported pIC50: N=C(N)NCCC[C@@H]1N[C@H](CNC(=O)/C=C/c2ccc(Br)cc2)CCN(CC(c2ccccc2)c2ccccc2)C1=O
Result: > 8.00

Ask: Determine its reported pIC50: N=C(N)NCCC[C@@H]1N[C@H](CNC(=O)c2ccc3sccc3c2)CCN(CC(c2ccccc2)c2ccccc2)C1=O
Result: > 7.00

---

# subject_of_test: human MC5R (Homo sapiens)
# Construct: purchased Perkin Elmer RBXMC5M400UA
# protocol: Human MC5R radioligand binding assay ([125I] NDP-MSH displacement, hMC5R membranes)
# study_conditions: hMC5R assay as in Example 102; compounds tested as trifluoroacetate or hydrochloride salts, or as free base
Parameter IC50: see the listing below.

Known IC50 results, listed for orientation:
compound: NCCC[C@@H]1N[C@H](CNC(=O)C2CCN(c3ccccc3)C2=O)CCN(CC(c2ccccc2)c2ccccc2)C1=O (stereo partly shown) [Compound 239]
IC50: < 10 µM
//
compound: N=C(N)NCCC[C@@H]1N[C@H](CNC(=O)Cc2ccc(Cl)c(Cl)c2)CCN(CC(c2ccccc2)c2ccccc2)C1=O [Compound 157]
IC50: < 10 µM
//
compound: NCCC[C@@H]1N[C@H](CNC(=O)c2cc(-c3ccco3)on2)CCN(CC(c2ccccc2)c2ccccc2)C1=O [Compound 241]
IC50: < 1 µM

// below: IC50 requested for another compound
Ask: Determine its reported IC50: N=C(N)NCCC[C@@H]1N[C@H](CNC(=O)c2cc3ccccc3[nH]2)CCN(CC(c2ccccc2)c2ccccc2)C1=O [Compound 142]
Result: < 0.1 µM
